Where do these numbers come from? They come from patent US8664230B2.

- ASSAYED TARGET: PI3Kα (Homo sapiens (Human), UniProt P42336)
- Sequence (P42336 whole entry, looked up, species assumed, one chain of several): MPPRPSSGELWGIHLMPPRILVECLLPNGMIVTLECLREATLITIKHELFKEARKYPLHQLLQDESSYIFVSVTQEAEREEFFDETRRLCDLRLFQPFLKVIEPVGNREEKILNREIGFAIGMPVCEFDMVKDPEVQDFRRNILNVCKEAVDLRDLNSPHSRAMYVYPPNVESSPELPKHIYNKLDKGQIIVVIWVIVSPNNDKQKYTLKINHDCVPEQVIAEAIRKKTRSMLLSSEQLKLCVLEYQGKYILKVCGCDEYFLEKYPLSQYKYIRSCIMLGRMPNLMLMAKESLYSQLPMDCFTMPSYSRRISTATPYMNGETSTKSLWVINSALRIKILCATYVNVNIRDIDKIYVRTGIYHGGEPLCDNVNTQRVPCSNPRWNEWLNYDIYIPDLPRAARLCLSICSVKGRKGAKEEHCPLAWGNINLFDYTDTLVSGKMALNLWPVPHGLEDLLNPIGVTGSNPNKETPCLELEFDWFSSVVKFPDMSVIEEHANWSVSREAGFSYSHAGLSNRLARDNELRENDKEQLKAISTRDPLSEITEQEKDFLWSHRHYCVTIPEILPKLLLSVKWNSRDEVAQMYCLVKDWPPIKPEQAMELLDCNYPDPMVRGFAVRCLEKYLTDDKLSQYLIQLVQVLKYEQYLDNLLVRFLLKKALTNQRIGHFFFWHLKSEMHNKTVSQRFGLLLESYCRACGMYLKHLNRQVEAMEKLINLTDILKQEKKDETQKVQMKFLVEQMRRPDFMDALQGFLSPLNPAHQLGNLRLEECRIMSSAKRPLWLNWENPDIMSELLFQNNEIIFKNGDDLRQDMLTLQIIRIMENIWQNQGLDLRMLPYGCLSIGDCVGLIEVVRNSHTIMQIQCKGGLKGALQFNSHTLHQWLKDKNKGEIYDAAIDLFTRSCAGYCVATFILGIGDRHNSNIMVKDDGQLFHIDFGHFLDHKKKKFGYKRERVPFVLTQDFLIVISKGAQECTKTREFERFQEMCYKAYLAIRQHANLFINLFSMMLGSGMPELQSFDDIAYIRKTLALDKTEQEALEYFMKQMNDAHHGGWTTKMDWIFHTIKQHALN
- ASSAY REMARKS: PI3 Kinase Activity/Inhibitor Assay (Millipore kit, competitive ELISA)
- Type: biochemical
QUANTITY MEASURED: IC50

// solved cases for IC50 follow
[[record]]
structure_smiles = "O=S(=O)(Nc1cncc(-c2ccc3ncnc(Oc4cccnc4)c3n2)c1)c1ccccc1"
reported = "< 10 µM"

[[record]]
structure_smiles = "O=S(=O)(Nc1cncc(-c2ccc3ncnc(OC4CCOCC4)c3n2)c1)c1ccccc1"
reported = "< 10 µM"

[[record]]
structure_smiles = "CN1CCC(Oc2ncnc3ccc(-c4cnc(Cl)c(NS(=O)(=O)c5ccc(F)cc5F)c4)nc23)CC1"
reported = "< 1 µM"

[[record]]
structure_smiles = "O=S(=O)(Nc1cc(-c2ccc3ncnc(OC4CCOCC4)c3n2)cnc1Cl)c1ccc(F)cc1F"
reported = "< 1 µM"

[[record]]
structure_smiles = "CN1CCC(Oc2ncnc3ccc(-c4cncc(NS(=O)(=O)c5ccccc5)c4)nc23)CC1"
reported = "< 10 µM"


Next, consider the following molecule.
Task item: Dear colleague, I am looking for the recorded IC50 of the following molecule: "O=S(=O)(Nc1cc(-c2ccc3ncnc(NC4CCOCC4)c3n2)cnc1Cl)c1ccc(F)cc1F"
Reply: < 10 µM

----------
- ASSAYED TARGET: PI3Kδ (Homo sapiens (Human), UniProt O00329)
- Sequence (O00329 whole entry, species assumed): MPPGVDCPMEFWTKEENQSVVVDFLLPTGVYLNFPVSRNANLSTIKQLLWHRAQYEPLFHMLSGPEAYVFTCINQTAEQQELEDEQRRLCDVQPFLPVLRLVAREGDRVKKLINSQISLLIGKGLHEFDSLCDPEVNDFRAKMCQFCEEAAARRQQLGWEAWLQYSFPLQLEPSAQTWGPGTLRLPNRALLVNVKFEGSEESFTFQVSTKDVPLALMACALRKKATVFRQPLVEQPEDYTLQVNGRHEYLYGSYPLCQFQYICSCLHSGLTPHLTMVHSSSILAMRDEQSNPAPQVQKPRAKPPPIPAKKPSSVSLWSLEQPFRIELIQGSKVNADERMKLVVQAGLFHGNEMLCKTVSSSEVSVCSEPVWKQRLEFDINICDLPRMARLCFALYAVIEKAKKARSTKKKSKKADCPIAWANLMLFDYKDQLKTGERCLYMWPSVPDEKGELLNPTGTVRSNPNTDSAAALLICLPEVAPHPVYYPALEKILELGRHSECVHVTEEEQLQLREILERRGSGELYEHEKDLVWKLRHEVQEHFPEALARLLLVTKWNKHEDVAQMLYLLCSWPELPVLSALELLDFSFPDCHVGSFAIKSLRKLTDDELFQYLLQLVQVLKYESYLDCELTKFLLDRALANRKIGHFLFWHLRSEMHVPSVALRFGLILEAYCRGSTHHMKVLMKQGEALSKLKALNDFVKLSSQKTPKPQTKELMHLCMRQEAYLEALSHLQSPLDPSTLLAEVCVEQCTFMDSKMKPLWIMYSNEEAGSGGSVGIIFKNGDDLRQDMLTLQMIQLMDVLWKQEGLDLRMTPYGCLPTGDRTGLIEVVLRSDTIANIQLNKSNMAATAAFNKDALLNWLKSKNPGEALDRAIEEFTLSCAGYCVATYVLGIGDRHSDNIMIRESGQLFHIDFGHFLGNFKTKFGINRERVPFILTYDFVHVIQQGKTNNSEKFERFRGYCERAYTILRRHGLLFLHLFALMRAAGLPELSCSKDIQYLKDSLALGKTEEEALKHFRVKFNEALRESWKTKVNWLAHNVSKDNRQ
- Sequence (P27986 whole entry partner, species assumed): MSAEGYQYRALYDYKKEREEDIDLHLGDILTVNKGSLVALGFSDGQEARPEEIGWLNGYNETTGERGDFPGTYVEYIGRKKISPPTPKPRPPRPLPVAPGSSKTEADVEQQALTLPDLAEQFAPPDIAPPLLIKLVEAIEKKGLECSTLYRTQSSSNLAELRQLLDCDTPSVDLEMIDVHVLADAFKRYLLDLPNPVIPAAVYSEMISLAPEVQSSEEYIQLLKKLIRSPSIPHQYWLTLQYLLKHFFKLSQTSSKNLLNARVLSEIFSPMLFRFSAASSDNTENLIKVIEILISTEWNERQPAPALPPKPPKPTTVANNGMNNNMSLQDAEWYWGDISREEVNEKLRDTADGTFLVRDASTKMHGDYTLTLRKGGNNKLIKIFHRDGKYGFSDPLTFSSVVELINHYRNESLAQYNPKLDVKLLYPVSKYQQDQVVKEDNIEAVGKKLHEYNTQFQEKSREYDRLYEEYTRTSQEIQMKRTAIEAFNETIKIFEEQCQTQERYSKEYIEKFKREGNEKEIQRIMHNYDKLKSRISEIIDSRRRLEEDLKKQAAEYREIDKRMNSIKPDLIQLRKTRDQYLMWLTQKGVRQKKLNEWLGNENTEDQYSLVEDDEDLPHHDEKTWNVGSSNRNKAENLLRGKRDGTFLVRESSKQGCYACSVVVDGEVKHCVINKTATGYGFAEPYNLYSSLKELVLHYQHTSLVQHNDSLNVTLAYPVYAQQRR
- ASSAY REMARKS: PI3 Kinase Activity/Inhibitor Assay (Millipore kit, competitive ELISA)
- Assay type: biochemical
Each entry below carries its recorded IC50.

// solved cases for IC50 follow
[[record]]
structure_smiles = "O=S(=O)(Nc1cc(-c2ccc3ncnc(OC4CCOCC4)c3n2)cnc1Cl)c1ccc(F)cc1F"
quantity_measured = "IC50"
reported = "< 1 µM"

[[record]]
structure_smiles = "CN1CCC(Oc2ncnc3ccc(-c4cncc(NS(=O)(=O)c5ccccc5)c4)nc23)CC1"
quantity_measured = "IC50"
reported = "< 10 µM"

[[record]]
structure_smiles = "O=S(=O)(Nc1cc(-c2ccc3ncnc(NC4CCOCC4)c3n2)cnc1Cl)c1ccc(F)cc1F"
quantity_measured = "IC50"
reported = "< 10 µM"


Task item: Dear colleague, I am looking for the recorded IC50 of the following compound: "O=S(=O)(Nc1cncc(-c2ccc3ncnc(OC4CCOCC4)c3n2)c1)c1ccccc1"
Reply: < 10 µM

Task item: Moving on to the next compound: "O=S(=O)(Nc1cncc(-c2ccc3ncnc(Oc4cccnc4)c3n2)c1)c1ccccc1"
Reply: < 10 µM

Task item: Moving on to the next compound: "CN1CCC(Oc2ncnc3ccc(-c4cnc(Cl)c(NS(=O)(=O)c5ccc(F)cc5F)c4)nc23)CC1"
Reply: < 1 µM

----------
Each entry below carries its recorded IC50.
- ASSAYED TARGET: PI3Kγ (Homo sapiens (Human))
- Sequence (P48736 whole entry, species assumed): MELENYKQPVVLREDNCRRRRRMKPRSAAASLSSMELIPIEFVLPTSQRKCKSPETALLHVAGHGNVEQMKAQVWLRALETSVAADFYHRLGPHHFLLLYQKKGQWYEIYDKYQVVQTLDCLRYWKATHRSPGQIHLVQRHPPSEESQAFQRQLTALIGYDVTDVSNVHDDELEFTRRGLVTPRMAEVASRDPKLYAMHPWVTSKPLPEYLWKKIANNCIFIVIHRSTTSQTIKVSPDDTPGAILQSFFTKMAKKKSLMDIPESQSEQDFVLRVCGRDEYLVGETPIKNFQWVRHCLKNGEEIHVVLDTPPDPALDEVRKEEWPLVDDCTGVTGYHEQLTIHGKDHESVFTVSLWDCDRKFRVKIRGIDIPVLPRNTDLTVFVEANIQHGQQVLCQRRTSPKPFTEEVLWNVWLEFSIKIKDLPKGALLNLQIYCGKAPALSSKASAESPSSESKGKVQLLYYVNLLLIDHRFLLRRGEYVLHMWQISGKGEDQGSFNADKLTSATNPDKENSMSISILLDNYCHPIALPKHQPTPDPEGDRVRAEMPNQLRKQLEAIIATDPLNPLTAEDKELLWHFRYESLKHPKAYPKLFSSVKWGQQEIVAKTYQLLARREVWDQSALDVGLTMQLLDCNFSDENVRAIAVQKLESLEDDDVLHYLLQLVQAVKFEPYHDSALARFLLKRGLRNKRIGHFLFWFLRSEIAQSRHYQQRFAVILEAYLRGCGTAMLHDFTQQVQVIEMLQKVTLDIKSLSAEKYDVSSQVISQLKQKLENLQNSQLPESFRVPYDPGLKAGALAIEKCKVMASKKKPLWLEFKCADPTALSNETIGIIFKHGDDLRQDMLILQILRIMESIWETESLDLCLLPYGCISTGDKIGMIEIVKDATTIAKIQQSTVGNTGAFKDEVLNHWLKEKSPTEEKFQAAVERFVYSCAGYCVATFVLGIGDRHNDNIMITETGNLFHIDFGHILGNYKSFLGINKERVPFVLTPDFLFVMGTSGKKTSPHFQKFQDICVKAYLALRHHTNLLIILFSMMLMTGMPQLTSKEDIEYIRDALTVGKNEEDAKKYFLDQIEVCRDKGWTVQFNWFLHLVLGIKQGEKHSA
- ASSAY REMARKS: PI3 Kinase Activity/Inhibitor Assay (Millipore kit, competitive ELISA)
- Format: biochemical

// solved cases for IC50 follow
[[record]]
structure_smiles = "CN1CCC(Oc2ncnc3ccc(-c4cnc(Cl)c(NS(=O)(=O)c5ccc(F)cc5F)c4)nc23)CC1"
reported = "< 10 µM"

[[record]]
structure_smiles = "O=S(=O)(Nc1cncc(-c2ccc3ncnc(Oc4cccnc4)c3n2)c1)c1ccccc1"
reported = "< 1 µM"

[[record]]
structure_smiles = "CN1CCC(Oc2ncnc3ccc(-c4cncc(NS(=O)(=O)c5ccccc5)c4)nc23)CC1"
reported = "< 10 µM"


Task item: Dear colleague, I am looking for the recorded IC50 of the following compound: "O=S(=O)(Nc1cc(-c2ccc3ncnc(OC4CCOCC4)c3n2)cnc1Cl)c1ccc(F)cc1F"
Reply: < 1 µM

Task item: Moving on to the next compound: "O=S(=O)(Nc1cc(-c2ccc3ncnc(NC4CCOCC4)c3n2)cnc1Cl)c1ccc(F)cc1F"
Reply: < 10 µM

Task item: Moving on to the next compound: "O=S(=O)(Nc1cncc(-c2ccc3ncnc(OC4CCOCC4)c3n2)c1)c1ccccc1"
Reply: < 1 µM
